target: AGO2 L192P (Homo sapiens, UniProt Q9UKV8 1-859, L192P;S387D;S824A;S828D;S831D;S834A); assay: RNA Bind-n-Seq (nitrocellulose filter binding and sequencing); miR-122 guide loaded in AGO2; 60 min incubation; 30 mM Tris pH 8.0, 100 mM potassium acetate, 2 mM magnesium acetate, 0.5 mM TCEP, 0.005% NP-40, 0.01 mg/ml yeast tRNA; 3 nM AGO2-miR-122, 100 nM RNA library; 60; high values mean tight binding; settings: protein: recombinant; tags: His6 (N-terminal, pFastBac HTA)
Sequence (Q9UKV8 whole entry L192P/S387D/S824A/S828D/S831D/S834A): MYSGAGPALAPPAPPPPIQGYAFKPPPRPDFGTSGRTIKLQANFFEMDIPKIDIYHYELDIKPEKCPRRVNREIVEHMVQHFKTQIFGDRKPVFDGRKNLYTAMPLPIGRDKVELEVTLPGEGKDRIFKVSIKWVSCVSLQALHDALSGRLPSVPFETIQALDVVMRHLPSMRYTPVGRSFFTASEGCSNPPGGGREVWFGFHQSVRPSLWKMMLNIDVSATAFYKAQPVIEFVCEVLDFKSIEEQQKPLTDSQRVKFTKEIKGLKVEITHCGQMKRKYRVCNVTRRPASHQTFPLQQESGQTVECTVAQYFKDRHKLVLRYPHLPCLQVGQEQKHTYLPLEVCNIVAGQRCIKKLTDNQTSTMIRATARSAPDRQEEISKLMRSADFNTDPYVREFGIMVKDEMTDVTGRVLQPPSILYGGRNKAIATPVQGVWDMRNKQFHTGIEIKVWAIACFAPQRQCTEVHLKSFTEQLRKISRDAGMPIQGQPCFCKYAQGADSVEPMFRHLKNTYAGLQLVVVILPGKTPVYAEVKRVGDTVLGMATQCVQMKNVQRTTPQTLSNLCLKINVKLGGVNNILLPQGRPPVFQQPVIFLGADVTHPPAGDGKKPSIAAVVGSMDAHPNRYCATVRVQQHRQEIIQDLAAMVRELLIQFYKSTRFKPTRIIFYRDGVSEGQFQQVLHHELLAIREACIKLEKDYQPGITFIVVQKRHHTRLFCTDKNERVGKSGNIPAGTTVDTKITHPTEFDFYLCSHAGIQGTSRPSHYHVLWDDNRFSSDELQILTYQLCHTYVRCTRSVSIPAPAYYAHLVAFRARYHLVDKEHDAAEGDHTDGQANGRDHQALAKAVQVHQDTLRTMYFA
METRIC: binding signal

Known binding signal results, listed for orientation:
# BINDER, binding signal
data = [
    ("ACATCCCG (ssRNA, constant regions annealed to DNA blockers; guide miR-122 5' phosphate) RNA 1: GAGUUCUACAGUCCGACGAUCCCAACACAUCCCGCACCUGGAAUUCUCGGGUGCCAA RNA 2: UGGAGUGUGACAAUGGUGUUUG DNA 1: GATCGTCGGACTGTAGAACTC DNA 2: TTGGCACCCGAGAATTCCA", "0.38 fold enrichment over input"),
    ("GCATCTTA (ssRNA, constant regions annealed to DNA blockers; guide miR-122 5' phosphate) RNA 1: GAGUUCUACAGUCCGACGAUCCCAACGCAUCUUACACCUGGAAUUCUCGGGUGCCAA RNA 2: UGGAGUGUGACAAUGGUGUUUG DNA 1: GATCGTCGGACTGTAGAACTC DNA 2: TTGGCACCCGAGAATTCCA", "0.487 fold enrichment over input"),
    ("GTACCCTG (ssRNA, constant regions annealed to DNA blockers; guide miR-122 5' phosphate) RNA 1: GAGUUCUACAGUCCGACGAUCCCAACGUACCCUGCACCUGGAAUUCUCGGGUGCCAA RNA 2: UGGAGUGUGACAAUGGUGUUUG DNA 1: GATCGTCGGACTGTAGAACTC DNA 2: TTGGCACCCGAGAATTCCA", "0.344 fold enrichment over input"),
]

Switching to the query record.
Query block: Using the record for ACATTTCA (ssRNA, constant regions annealed to DNA blockers; guide miR-122 5' phosphate) RNA 1: GAGUUCUACAGUCCGACGAUCCCAACACAUUUCACACCUGGAAUUCUCGGGUGCCAA RNA 2: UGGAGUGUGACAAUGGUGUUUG DNA 1: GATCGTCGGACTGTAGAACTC DNA 2: TTGGCACCCGAGAATTCCA , report its binding signal.
Result block: 1.13 fold enrichment over input
